- Target Or System: KRAS G12V protein in SW620 cells (Homo sapiens, UniProt P01116, G12V)
- Construct: endogenous in cells; host or cells: SW620
- Sequence (P01116 1-188 isoform P01116-2 G12V): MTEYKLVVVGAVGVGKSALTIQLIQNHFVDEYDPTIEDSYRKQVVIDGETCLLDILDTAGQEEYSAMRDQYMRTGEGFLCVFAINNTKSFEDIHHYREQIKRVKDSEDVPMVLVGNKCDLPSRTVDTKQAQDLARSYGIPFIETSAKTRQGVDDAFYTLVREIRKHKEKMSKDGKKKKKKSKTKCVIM
- Measurement Notes: KRAS degradation assay (Western Blot) in SW620 cells
- Format: cell-based
- Condition Info: 24 h
Reported Property: DC50 (nM)

Some entries whose results are on file:
C#Cc1c(F)ccc2cc(O)cc(-c3ncc4c(N5CCC[C@@](C)(O)C5)nc(OC[C@H](C)CN5CCN(CC6CCC7(CC6)CCN(C(=O)c6ccc(C)c(N8CCC(=O)NC8=O)c6)CC7)CC5)nc4c3F)c12 [Example 47] = 0.99
C#Cc1c(F)ccc2cc(O)cc(-c3ncc4c(N5CCCC(F)(F)C5)nc(OCC5(CN6CCN(CC7CCC8(CC7)CCN(C(=O)c7ccc(OC)c(N9CCC(=O)NC9=O)c7)CC8)CC6)CC5)nc4c3F)c12 [Example 72] = 11.8

1: C#Cc1c(F)ccc2cc(O)cc(-c3ncc4c(N5CCC[C@@](C)(O)C5)nc(OCC5(CN6CCN(CC7CCC8(CC7)CCN(C(=O)c7ccc(C)c(N9CCC(=O)NC9=O)c7)CC8)CC6)CC5)nc4c3F)c12 [Example 6]
2: C#Cc1c(F)ccc2cc(O)cc(-c3ncc4c(N5CCC[C@@](C)(O)C5)nc(OC[C@H](C)CN5CCN(CC6CCC7(CC6)CCN(C(=O)c6cc(N8CCC(=O)NC8=O)c(C)cc6F)CC7)CC5)nc4c3F)c12 [Example 162]
Enquiry: Parameter check: reported DC50 is higher for which label, 1 or 2 ? Select an item and report its label.
Return: 2
(2: 21.7 nM, 1: 3.56 nM)
